experiment: cAMP Responsive Elements (CRE) small molecule agonists, cell-based qHTS assay: qHTS cell viability counter screen (AID 2060914); conditions: CRE-bla HEK293T viability, CellTiter-Glo luminescence, 5 h; series mostly up to 92.4 µM;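 further: viability read after 3 h of compound exposure; nearly all actives have a fitted effect of over 50% in size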
Inconclusive results are not listed. Active and inactive are the calls of the source. The call rests on the fitted dose curve; in most records, active means well fitted cell-killing curve with a large enough effect in the repeat runs; inconclusive means weak or mixed curves, or effect the other way; inactive means flat fitted curve, though single readings scatter.
Select the matching outcome among TRUE (active), FALSE (inactive)

Worked set:
- Molecule: "O=c1oc2ccccc2c(O)c1C(CC(O)c1ccc(-c2ccc(Br)cc2)cc1)c1ccccc1 (configuration not stated)"
  Label: "FALSE"
- Molecule: "CCOP(=O)(O)C(N)=O"
  Label: "FALSE"
- Molecule: "COc1cc(N)c(Cl)cc1C(=O)NC1CN2CCC1CC2 (configuration not stated)"
  Label: "FALSE"

# lookup: test call for c1ccc(NNc2ccccc2)cc1
FALSE

Which outcome was entered for the molecule CN(C)N in this test?
FALSE

Could you check what this test reported for CCOP(=S)(OCC)SCSc1ccc(Cl)cc1 ?
FALSE

For this molecule, state the assay outcome: CCO/N=C(\CC)C1=C(O)CC(c2c(C)cc(C)cc2C)CC1=O (configuration not stated)
FALSE

Write down the call the test reported for this molecule. Item: CCc1cccc(CC)c1N(COC)C(=O)CCl
FALSE

Kindly provide the recorded test outcome for the following molecule: ClC(Cl)c1ccccc1
FALSE

Please indicate how the test categorized CCCC(C)C1(CC)C(=O)N=C(S)NC1=O (configuration not stated) .
FALSE
